# System: MOLT-4
# Protocol Summary: NCI60 antitumor screening
# Type: cell-based, human
# Settings: 10 μM one-dose
Endpoint Label: GI% (%)

>>> quantitative_readout("N#Cc1c(-c2ccc(F)cc2)nc(SCc2ccc([N+](=O)[O-])cc2)nc1N1CCOCC1")
26.34
>>> quantitative_readout("Cc1ccc(CSc2nc(Cl)c(C#N)c(-c3ccc(F)cc3)n2)cc1")
29.08
>>> quantitative_readout("N#Cc1c(Cl)nc(SCc2ccc(F)cc2)nc1-c1ccc(F)cc1")
19.35
>>> quantitative_readout("N#Cc1c(-c2ccc(F)cc2)nc(SCc2ccc(F)cc2)nc1N1CCNCC1")
92.21
>>> quantitative_readout("Cc1ccc(CSc2nc(-c3ccc(F)cc3)c(C#N)c(=O)[nH]2)cc1")
11.64
>>> quantitative_readout("N#Cc1c(Cl)nc(SCc2ccc([N+](=O)[O-])cc2)nc1-c1ccc(F)cc1")
38.07
>>> quantitative_readout("N#Cc1c(-c2ccc(F)cc2)nc(SCc2ccc([N+](=O)[O-])cc2)[nH]c1=O")
24.34
